Give measured inhibition of growth at 10 µM for each item. Keep answers brief.
test system: NCI-H322M; assay: Antitumor activity against human NCI-H322M cells assessed as growth inhibition at 10 uM relative to control; type: functional; conditions: read-out: GI

What value of inhibition of growth at 10 µM has been reported for the following molecule? N#Cc1c(-c2ccc(Cl)cc2)nc(N/N=C/c2cccc(Cl)c2)nc1N1CCOCC1
11.2%

Note, next up: N#Cc1c(-c2ccc(Cl)cc2)nc(N/N=C2/C(=O)Nc3ccccc32)nc1N1CCOCC1
< 1%

Now the molecule N#Cc1c(-c2ccc(Cl)cc2)nc(N/N=C2/C(=O)Nc3ccc(Br)cc32)nc1N1CCOCC1
< 1%

Same thing, different molecule: CSc1nc(-c2ccc(Cl)cc2)c(C#N)c(N2CCOCC2)n1
< 1%

Next record, please: N#Cc1c(-c2ccc(Cl)cc2)nc(N/N=C/c2cccc(F)c2)nc1N1CCOCC1
< 1%

Another molecule: N#Cc1c(-c2ccc(Cl)cc2)nc(NN2C(=O)CCC2=O)nc1N1CCOCC1
< 1%

And what about the molecule N#Cc1c(-c2ccc(Cl)cc2)nc(N/N=C/c2cccc([N+](=O)[O-])c2)nc1N1CCOCC1 ?
14.3%

Then this molecule: N#Cc1c(-c2ccc(Cl)cc2)nc(N/N=C/c2cccc(Br)c2)nc1N1CCOCC1
< 1%

Next up: N#Cc1c(-c2ccc(Cl)cc2)nc(N2NC(=O)CC2=N)nc1N1CCOCC1
< 1%

Then N#Cc1c(-c2ccc(Cl)cc2)nc(N/N=C/c2ccco2)nc1N1CCOCC1 ?
30.6%

Repeat with N#Cc1c(-c2ccc(Cl)cc2)nc(N/N=C/c2ccc[nH]2)nc1N1CCOCC1
< 1%

Quick one: N#Cc1c(-c2ccc(Cl)cc2)nc(N/N=C/c2cccc(O)c2)nc1N1CCOCC1
13.7%

// repeat for CC1=NN(c2nc(-c3ccc(Cl)cc3)c(C#N)c(N3CCOCC3)n2)C(=O)C1 and report
< 1%

One more molecule: N#Cc1c(-c2ccc(Cl)cc2)nc(N/N=C2/C(=O)Nc3ccc(Cl)cc32)nc1N1CCOCC1
< 1%

Now give it for N#Cc1c(-c2ccc(Cl)cc2)nc(NN)nc1N1CCOCC1 too.
< 1%

And N#Cc1c(-c2ccc(Cl)cc2)[nH]c(=S)[nH]c1=O ?
< 1%

Quick one: N#Cc1c(-c2ccc(Cl)cc2)nc(NN2C(=O)c3ccccc3C2=O)nc1N1CCOCC1
< 1%

Also need COc1cc(/C=N/Nc2nc(-c3ccc(Cl)cc3)c(C#N)c(N3CCOCC3)n2)cc(OC)c1OC , thanks.
16.4%

Lookup Cc1cc(C)n(-c2nc(-c3ccc(Cl)cc3)c(C#N)c(N3CCOCC3)n2)n1
< 1%

Queued: CSc1nc(O)c(C#N)c(-c2ccc(Cl)cc2)n1
< 1%

Similarly, CSc1nc(Cl)c(C#N)c(-c2ccc(Cl)cc2)n1 ?
< 1%

---

Exercise: for every item that follows, state its recorded inhibition of growth at 10 µM.
tested on: LOX IMVI; assay: Antitumor activity against human LOX IMVI cells assessed as growth inhibition at 10 uM relative to control; format: functional; settings: read-out: GI
Supply the numeric figure in %, leaving out any unit text.

Entry N#Cc1c(-c2ccc(Cl)cc2)nc(N/N=C/c2cccc([N+](=O)[O-])c2)nc1N1CCOCC1 : reported inhibition of growth at 10 µM = ?
26

Please answer likewise for N#Cc1c(-c2ccc(Cl)cc2)nc(N/N=C/c2cccc(Br)c2)nc1N1CCOCC1
20.2

Same for N#Cc1c(-c2ccc(Cl)cc2)nc(N/N=C/c2cccc(F)c2)nc1N1CCOCC1
11.8

Further, for N#Cc1c(-c2ccc(Cl)cc2)nc(N/N=C/c2cccc(Cl)c2)nc1N1CCOCC1 ?
14.5

Note, next up: COc1cc(/C=N/Nc2nc(-c3ccc(Cl)cc3)c(C#N)c(N3CCOCC3)n2)cc(OC)c1OC
70

How about this compound: N#Cc1c(-c2ccc(Cl)cc2)nc(N/N=C/c2ccco2)nc1N1CCOCC1
21.3

Note, next up: N#Cc1c(-c2ccc(Cl)cc2)nc(N/N=C/c2ccc[nH]2)nc1N1CCOCC1
12.2
